Origin of values: paper PMC10999177

molecular target: hAGO2 (Homo sapiens, UniProt Q9UKV8 1-859); experiment: EMSA; 20 nM probe, binding buffer of cited ref. 28 (composition and pH not given), on ice 30 min; 5% native PAGE, 0.5x TBE, 100 V 50 min; conditions: protein: recombinant; tags: MBP-tag removed by thrombin; HisTrap purification (His tag implied); label: 5'-Cy5; single strand
Sequence (Q9UKV8 whole entry): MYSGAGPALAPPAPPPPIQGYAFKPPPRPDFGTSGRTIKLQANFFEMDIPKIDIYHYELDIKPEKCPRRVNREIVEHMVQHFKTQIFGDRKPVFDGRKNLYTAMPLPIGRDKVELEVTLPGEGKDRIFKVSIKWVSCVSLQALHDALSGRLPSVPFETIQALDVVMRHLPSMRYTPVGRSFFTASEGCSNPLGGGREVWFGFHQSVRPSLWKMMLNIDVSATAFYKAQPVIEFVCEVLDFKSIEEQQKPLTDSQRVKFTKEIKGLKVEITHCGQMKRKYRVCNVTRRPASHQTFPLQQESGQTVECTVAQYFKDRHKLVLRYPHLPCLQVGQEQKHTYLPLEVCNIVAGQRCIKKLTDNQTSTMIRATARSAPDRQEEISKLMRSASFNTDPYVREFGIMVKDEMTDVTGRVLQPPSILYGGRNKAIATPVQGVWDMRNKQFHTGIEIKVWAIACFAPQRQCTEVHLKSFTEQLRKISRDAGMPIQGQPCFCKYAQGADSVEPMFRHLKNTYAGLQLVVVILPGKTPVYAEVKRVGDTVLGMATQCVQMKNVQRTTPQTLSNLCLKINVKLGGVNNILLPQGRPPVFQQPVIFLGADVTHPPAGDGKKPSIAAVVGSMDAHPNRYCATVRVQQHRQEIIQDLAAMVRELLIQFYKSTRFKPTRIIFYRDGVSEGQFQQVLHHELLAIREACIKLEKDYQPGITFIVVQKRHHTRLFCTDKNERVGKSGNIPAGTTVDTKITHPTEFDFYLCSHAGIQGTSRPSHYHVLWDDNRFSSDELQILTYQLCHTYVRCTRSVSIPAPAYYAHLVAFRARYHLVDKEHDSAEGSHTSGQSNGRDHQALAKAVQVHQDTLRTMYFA
MEASURE NAME: Kd (nM)
Give the quantity in nM, number only.

input: State its Kd for this binder: AAUGGAUUUUUGGAGCAGG (ssRNA) [5'Cy5-miR-1246]
output: 12.2
